For each entry below, report its Hepatotoxicity (acute) value.
- ASSAY PROTOCOL: Highest frequency of acute liver toxicity observed during clinical trials, expressed as a percentage. [column '% AIGUE' in source]
- RUN CONDITIONS: human
Structures can show the parent of a compound that is named as a salt.
Give bare numbers, in %.

Consider the reported Hepatotoxicity (acute) for these molecules:
Task: Input CC[C@H]1OC(=O)[C@H](C)[C@@H](O[C@H]2C[C@@](C)(OC)[C@@H](O)[C@H](C)O2)[C@H](C)[C@@H](O[C@@H]2O[C@H](C)C[C@H](N(C)C)[C@H]2O)[C@](C)(O)C[C@](C)(F)C(=O)[C@H](C)[C@@H](O)[C@]1(C)O , output reported Hepatotoxicity (acute).
Output: 0

Task: Query Hepatotoxicity (acute) for CCNc1cccnc1N1CCN(C(=O)c2cc3cc(OC)ccc3[nH]2)CC1 [ATEVIRDINE MESYLATE]
Output: 6.7

Task: Provide measured Hepatotoxicity (acute) value, entry: CC(=O)Oc1cc(C(C)C)c(OCCN(C)C)cc1C
Output: 0

Task: Give the reported value of Hepatotoxicity (acute) for this record: C=C(OC)C(=O)Nc1cc(OC)c(OC)cc1C(=O)O[C@H]1C[C@H](O[C@@H]2C(=O)C(NC(=O)OC)=C3/C(=C\CSSSC)[C@]2(O)C#C/C=C\C#C[C@@H]3O[C@@H]2O[C@H](C)[C@@H](NO[C@H]3C[C@H](O)[C@H](SC)[C@@H](C)O3)[C@H](O)[C@H]2O[C@H]2C[C@H](OC)[C@@H](NC(C)C)CO2)O[C@@H](C)[C@H]1O
Output: 0

Task: Quote Hepatotoxicity (acute) reported for COc1cc(C(=O)NCc2ccc(OCCN(C)C)cc2)cc(OC)c1OC [TRIMETHOBENZAMIDE] please.
Output: 0

Hi there! I need Hepatotoxicity (acute) for each item below, if you can.
1. COc1cc([C@@H]2c3cc4c(cc3[C@@H](O[C@@H]3O[C@@H]5CO[C@@H](c6cccs6)O[C@H]5[C@H](O)[C@H]3O)[C@H]3COC(=O)[C@H]23)OCO4)cc(OC)c1O [TENIPOSIDE]
2. COC1=C(C(=O)O)N2C(=O)[C@@H](NC(=O)[C@H](N)C3=CCC=CC3)[C@H]2SC1
3. CC[C@H]1OC(=O)[C@H](C)[C@@H](O[C@H]2C[C@@](C)(OC)[C@@H](O)[C@H](C)O2)[C@H](C)[C@@H](O[C@@H]2O[C@H](C)C[C@H](N(C)C)[C@H]2O)[C@](C)(OC)C[C@@H](C)C(=O)[C@H](C)[C@@H](O)[C@]1(C)O

Output:
1. 0
2. 0
3. 5.6

Can you give me Hepatotoxicity (acute) for all of these, one by one?
1. CN1CCc2cccc3c2[C@H]1Cc1ccc(O)c(O)c1-3
2. Cc1ccc2c(-c3ccccc3)nc(=O)n(C(C)C)c2c1
3. CCN(CC)CC(=O)Oc1ccc(NC(C)=O)cc1
4. CC(C)C[C@H](NC(=O)[C@@H](O)[C@H](N)Cc1ccccc1)C(=O)O

Output:
1. 0
2. 0
3. 0
4. 0
